System: MOLM14
experiment: cell viability relative to vehicle control; higher = less cytotoxic;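 also: after 48 h exposure read by CellTiter-Glo luminescence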
experimental.context: 10 µM; SRSF2 genotype: SRSF2 wt/wt
attribute.measured: cell viability
Just so you know, I need the unit written after the number.

Some compounds with known cell viability results, for comparison:
O=[N+]([O-])c1ncc[nH]1 :: 100%
C/C(O)=C(\C#N)C(=O)Nc1cc(Br)ccc1Br :: 93.7%
CC(C)=CCCC(C)(O)C1CCC2(C)C1C(O)CC1C3(C)CCC(O)C(C)(C)C3C(OC3OC(CO)C(O)C(O)C3O)CC12C [(20R)-Ginsenoside Rh1] :: 107%

-- ask State its cell viability for this compound: CN1C(=O)CCS(=O)(=O)C1c1ccc(Cl)cc1 (centres undefined)
-- reply 97.2%

-- ask State its cell viability for this compound: CCCCCc1cc(O)cc(O)c1
-- reply 107%

====

Test system: OCI-AML2
experiment: cell viability relative to vehicle control; higher = less cytotoxic
experimental.context: 10 µM; SRSF2 genotype: P95H/wt
Entries and their cell viability
Just so you know, I need the unit written after the number.

Some compounds with known cell viability results, for comparison:
CCCCCCC[n+]1ccc(-c2cc[n+](CCCCCCC)cc2)cc1 [DHBP dibromide] :: 51.8%
O=C(CC1NCCCC1O)Cn1cnc2cc(Br)c(Cl)cc2c1=O (configuration not stated) :: 0.78%
Cl[TeH]1(Cl)(Cl)OCCO1.N :: 76.1%
COc1cc2c3c(c1OC)-c1ccccc1C[C@H]3N(C)CC2 :: 96.3%
Cc1c(N[C@@H](c2nnc(-c3ccc(C#N)cc3)o2)[C@H](C)O)ccc(C#N)c1Cl :: 100%

Now consider the entry below.
-- ask State its cell viability for this compound: C[C@]12CC[C@H](O)CC1=CC[C@@H]1[C@@H]2CC[C@]2(C)C(=O)CC[C@@H]12 [Dehydroepiandrosterone (DHEA)]
-- reply 110%

====

Test system: K562
experiment: cell viability relative to vehicle control; higher = less cytotoxic
experimental.context: 10 µM; SRSF2 genotype: SRSF2 wt/wt
Structures can show the parent of a compound that is named as a salt.
attribute.measured: cell viability (%)
Express the result in % but write the number alone.

Some compounds with known cell viability results, for comparison:
CCC1(c2cccc(O)c2)CCCCN(C)C1 (centres undefined) [Meptazinol HCl] :: 100
Cc1cccc(C)c1NC(=O)CN1CCCC1=O [Nefiracetam (Translon)] :: 107
CN1CCN(c2nc3ccccc3nc2Cl)CC1 :: 98.8
O=C(CBr)c1ccc(O)cc1 :: 107
Cc1cccc(C)c1NC1=NCCCS1 [Xylazine HCl] :: 82.8
CC(C)=CCC[C@](C)(O)[C@H]1CC[C@]2(C)[C@@H]1[C@H](O)C[C@@H]1[C@@]3(C)CC[C@H](O[C@@H]4O[C@H](CO)[C@@H](O)[C@H](O)[C@H]4O)C(C)(C)[C@@H]3CC[C@]12C [20S-Ginsenoside Rh2] :: 105
CC(C)OC(=O)[C@H](C)N[P@](=O)(CO[C@H](C)Cn1cnc2c(N)ncnc21)Oc1ccccc1 [Tenofovir Alafenamide (GS-7340)] :: 97.3
CNCC(O)c1ccc(O)cc1 (centres undefined) [Synephrine (Oxedrine)] :: 94.5
CC12NC(Cc3ccccc31)c1ccccc12 (single isomer, unassigned; (+)) [(+)-MK 801 maleate] :: 93.2
CCC1(c2ccc(N)cc2)CCC(=O)NC1=O (centres undefined) [Aminoglutethimide (Cytadren)] :: 110

-- ask Please respond with reported cell viability (system K562) for CN1c2ccccc2C(NCCCCCCC(=O)O)c2ccc(Cl)cc2S1(=O)=O (centres undefined) [Tianeptine sodium] .
-- reply 97.6

-- ask Please respond with reported cell viability (system K562) for C/C(=C\c1csc(C)n1)[C@@H]1C[C@@H]2O[C@]2(C)CCC[C@H](C)[C@H](O)[C@@H](C)C(=O)C(C)(C)[C@@H](O)CC(=O)O1 [Patupilone (EPO906, Epothilone B)] .
-- reply 39.4

-- ask Please respond with reported cell viability (system K562) for Cn1c(CCCC(=O)O)nc2cc(N(CCCl)CCCl)ccc21 [Bendamustine HCL] .
-- reply 96.3

-- ask Please respond with reported cell viability (system K562) for COc1ccc(N(C(=O)Oc2c(C)cccc2C)c2ccnc(Nc3ccc(N4CCN(C)CC4)cc3)n2)c(OC)c1 .
-- reply 6.62

====

Test system: MOLM14
experiment: cell viability relative to vehicle control; higher = less cytotoxic
experimental.context: 10 µM; SRSF2 genotype: SRSF2 P95H/wt
Counter-ions that a name gives are not always drawn.
attribute.measured: cell viability (%)
Express the result in % but write the number alone.

Some molecules with known cell viability results, for comparison:
O=[N+]([O-])c1ncc[nH]1 :: 95.3
C=C1CCC2C(/C=C(\C)C(=O)C3(OC(C)=O)CC(C)C(OC(=O)c4ccccc4)C3C1OC(C)=O)C2(C)C (stereo not drawn) :: 47.6
CC(C)NCC(O)c1ccccc1Cl (stereo not drawn) [Clorprenaline HCL] :: 95.2
CN1CCN(c2nc3ccccc3nc2Cl)CC1 :: 105

-- ask State its cell viability for this molecule: CN1C(=O)[C@@]23C[C@]4([C@]56C[C@@]78SS[C@@](CO)(C(=O)N7[C@H]5Nc5ccccc56)N(C)C8=O)c5ccccc5N[C@@H]4N2C(=O)[C@]1(CO)SS3
-- reply 0.25

-- ask State its cell viability for this molecule: CC(=O)O[C@H]1C[C@@H]2CC[C@@H]3[C@H](CC[C@@]4(C)[C@H]3C[C@H]([N+]3(C)CCCCC3)[C@@H]4OC(C)=O)[C@@]2(C)C[C@@H]1[N+]1(C)CCCCC1 [Pancuronium dibromide]
-- reply 103

-- ask State its cell viability for this molecule: CN1CCC(c2c[nH]c3ccc(O)cc23)CC1
-- reply 103

-- ask State its cell viability for this molecule: CC(NC(C)(C)C)C(=O)c1cccc(Cl)c1 (stereo not drawn) [Amfebutamone (Bupropion) HCl]
-- reply 95.1

====

Entries and their cell viability
System: K562
experiment: cell viability relative to vehicle control; higher = less cytotoxic
experimental.context: 10 µM; SRSF2 genotype: SRSF2 wt/wt
Express the result in % but write the number alone.

Some compounds with known cell viability results, for comparison:
C=C(C)[C@H]1Cc2c(ccc3c2O[C@@H]2COc4cc(OC)c(OC)cc4[C@@H]2C3=O)O1 :: 23.4
CC(C)[C@]12O[C@H]1[C@@H]1O[C@@]13[C@@]1(C)CCC4=C(COC4=O)[C@@H]1C[C@@H]1O[C@@]13C2=O [Triptonide] :: 8.48
CC(=O)O[C@H]1C[C@@H]2CC[C@@H]3[C@H](CC[C@@]4(C)[C@H]3C[C@H]([N+]3(C)CCCCC3)[C@@H]4OC(C)=O)[C@@]2(C)C[C@@H]1[N+]1(C)CCCCC1 [Pancuronium dibromide] :: 91.6

Now consider the entry below.
-- ask State its cell viability for this compound: CC1=C[C@]23C(=O)[C@@H](C=C(CO)[C@@H](O)[C@]2(O)[C@H]1O)[C@H]1[C@@H](C[C@H]3C)C1(C)C
-- reply 111

====

Tested on: MOLM14
experiment: cell viability relative to vehicle control; higher = less cytotoxic
experimental.context: 10 µM; SRSF2 genotype: SRSF2 wt/wt
Where a name gives a salt, the structure may show the parent alone.
attribute.measured: cell viability
Just so you know, I need the unit written after the number.

N#CC(C#N)=Cc1ccc(O)c(O)c1 :: 86.5%
COc1ccc2c(c1)[nH]c1c(C)nccc12 [Harmine hydrochloride] :: 66.8%
CC(C)(C)[C@]1(O)CC2OC(=O)CC23C(=O)OC2OC(=O)[C@H](O)C231 (some centres undefined) [Bilobalide] :: 104%

-- ask State its cell viability for this compound: CC(C)[C@]12O[C@H]1[C@@H]1O[C@]13[C@]1(O[C@H]1C[C@H]1C4=C(CC[C@@]13C)C(=O)OC4)[C@@H]2O [Triptolide]
-- reply 0.54%

====

Entries and their cell viability
System: OCI-AML2
experiment: cell viability relative to vehicle control; higher = less cytotoxic
experimental.context: 10 µM; SRSF2 genotype: P95H/wt
Express the result in % but write the number alone.

Some compounds with known cell viability results, for comparison:
CC(=O)Nc1ccc(OC[C@](C)(O)C(=O)Nc2ccc([N+](=O)[O-])c(C(F)(F)F)c2)cc1 [Andarine (GTX-007)] :: 97.1
O=C1CCC[C@@H]2[C@H]3CCCN4CCC[C@H](CN12)[C@@H]34 [Sophoridine] :: 100
C=C[C@H]1CN2CC[C@]3(C(=O)Nc4ccccc43)[C@@H]2C[C@@H]1/C(=C\OC)C(=O)OC [Corynoxeine] :: 96
O=C1CCC[C@@H]2[C@H]3CCCN4CCC[C@@H](CN12)[C@@H]34 [Matrine ((+)-Matrine)] :: 106
COc1cc(OC)c(OC)cc1C=O [Asaraldehyde (Asaronaldehyde)] :: 102

-- ask State its cell viability for this compound: C[N+](C)(C)CCCCCCCCCC[N+](C)(C)C [Decamethonium Bromide]
-- reply 120
